Target: KasA (Mycobacterium tuberculosis)
Sequence (P9WQD9 1-416): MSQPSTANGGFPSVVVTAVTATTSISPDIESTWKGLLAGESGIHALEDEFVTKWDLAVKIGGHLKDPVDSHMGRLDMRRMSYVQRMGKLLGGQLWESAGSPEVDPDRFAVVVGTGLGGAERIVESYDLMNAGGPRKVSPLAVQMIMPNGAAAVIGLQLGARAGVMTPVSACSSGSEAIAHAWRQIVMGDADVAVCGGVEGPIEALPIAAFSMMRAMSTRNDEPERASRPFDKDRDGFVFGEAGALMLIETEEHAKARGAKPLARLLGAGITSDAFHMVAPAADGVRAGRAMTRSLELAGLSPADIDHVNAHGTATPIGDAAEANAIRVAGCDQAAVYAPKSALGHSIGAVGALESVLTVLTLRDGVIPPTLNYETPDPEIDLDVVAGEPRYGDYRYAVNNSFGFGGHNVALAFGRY
endpoint: Kd (µM)

1. O=C(Nc1nc(-c2ccccn2)cs1)c1cc(-c2ccccc2)nc2ccc(Br)cc12 [JSF-5071]
4.78
